Every entry's value here was drawn from ChEMBL document CHEMBL5126503.

# System: NCI-H460
# assay.summary: Cytotoxicity against human NCI-H460 cells assessed as cell growth inhibition
# Type: functional, cell-based
pIC50: −log10 of the molar value.

smiles.entry	pIC50
C/C=C(/C)C(=O)OC[C@H]1C2=C(C[C@H]3[C@H]4c5c(O)c(OC)c(C)c(O)c5[C@@H](O)[C@@H]([C@H](C#N)N13)N4C)C(=O)C(C)=C(OC)C2=O	8.17

====

# System: QG-56
# assay.summary: Cytotoxicity against human QG-56 cells assessed as cell growth inhibition incubated for 4 days by Cell counting kit-8 assay
# Assay type: functional, cell-based
# cond: QG-56, 96 h
pIC50: −log10 of the molar value.
Label scheme for pIC50: lower than 8 is not fulfilled, 8 and above is fulfilled.

smiles.entry	label.class
COC1=C(C)C(=O)C2=C(C1=O)[C@@H]1[C@@H]3CC4=C(C(=O)C(OC)=C(C)C4=O)[C@H](COC(C)=O)N3[C@@H](O)[C@H](C2)N1C	fulfilled
CCC(=O)OC[C@H]1C2=C(C[C@H]3[C@H]4C5=C(C[C@@H]([C@H](C#N)N13)N4C)C(=O)C(C)=C(OC)C5=O)C(=O)C(C)=C(OC)C2=O	fulfilled
COC1=C(C)C(=O)C2=C(C1=O)[C@H](CO)N1[C@@H](C#N)[C@@H]3C(=O)c4c(O)c(C)c(OC)c(O)c4[C@H]([C@@H]1C2)N3C	not fulfilled
